- experimental.system: human RNMT-RAM complex (Homo sapiens)
- Sequence (O43148 whole entry): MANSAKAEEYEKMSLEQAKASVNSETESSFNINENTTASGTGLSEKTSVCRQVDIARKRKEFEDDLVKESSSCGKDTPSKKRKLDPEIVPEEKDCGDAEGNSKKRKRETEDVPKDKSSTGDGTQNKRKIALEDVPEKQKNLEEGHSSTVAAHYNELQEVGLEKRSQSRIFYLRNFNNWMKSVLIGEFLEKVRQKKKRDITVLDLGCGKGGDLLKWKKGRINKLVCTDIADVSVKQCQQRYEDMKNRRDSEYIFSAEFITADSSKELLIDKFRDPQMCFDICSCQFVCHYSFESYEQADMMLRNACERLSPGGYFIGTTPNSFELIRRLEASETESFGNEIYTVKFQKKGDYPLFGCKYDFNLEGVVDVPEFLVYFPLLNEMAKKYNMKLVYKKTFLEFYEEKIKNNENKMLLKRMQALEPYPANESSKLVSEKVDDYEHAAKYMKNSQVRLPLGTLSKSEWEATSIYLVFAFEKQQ
- Sequence (Q9BTL3 whole entry partner): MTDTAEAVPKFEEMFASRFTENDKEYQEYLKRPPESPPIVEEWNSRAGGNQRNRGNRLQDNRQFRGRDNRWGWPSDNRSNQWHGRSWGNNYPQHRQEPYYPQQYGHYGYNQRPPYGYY
- test: Biochemical activity assay for the human RNMT-RAM complex (MTase-Glo)
- condition.notes: read-out: hRNMT-RAM inhibition: Maximum response
Assign y whenever Emax does not fall below 7%; assign n whenever it does.

[
  {
    "molecule": "C[C@@H](NC(=O)c1ccc(CNC(=O)c2ccc3[nH]ncc3c2)cc1)c1cccc(O)c1",
    "qualitative.label": "n"
  },
  {
    "molecule": "Cc1ccc(NC(=O)Cn2nnc3ccccc3c2=O)cc1S(=O)(=O)N1CCCCC1",
    "qualitative.label": "y"
  },
  {
    "molecule": "Cc1cnc(C(C)NC(=O)c2ccc(CNC(=O)c3ccc(O)c(C)c3)cn2)nc1 (centres unmarked)",
    "qualitative.label": "n"
  },
  {
    "molecule": "COc1ccc(-c2ocnc2C(=O)Nc2ccc3oc(=O)n(CC(=O)N4CCCCC4)c3c2)cc1",
    "qualitative.label": "y"
  }
]

Next, consider the following molecule.
(Q) Say whether Cc1cc(C(=O)NCc2ccc(C(=O)NC(C)c3ccccc3C)nc2)ccc1O (centres unmarked) shows Emax of 7% or more.
(A) n
